test: Sirius T3 automated potentiometric titrations with n-octanol, log P / log D; details: n-octanol/water, pH 9
ASSAY_METRIC: logD
Give the value as a plain number.

Input: I have this compound here, CN(C)CCCN1c2ccccc2Sc2ccccc21 [promazine] , and I need its recorded logD.
Output: 4

----------
experiment: open-tubular capillary electrochromatography (CEC), permeability k′ parameter; type: in vitro ADME; settings: pH 7.4 HEPES buffer 40 mM, migration times in coated and uncoated capillary, mean ± SD of three independent experiments
ASSAY_METRIC: k′ ± SD (CEC)
The answer should be a number; do not append a unit.

Example compounds with recorded k′ ± SD (CEC):
COMPOUND	k′ ± SD (CEC)
CNCCc1ccccn1 [betahistine]	0.03582
CN1CCN(CCCN2c3ccccc3Sc3ccc(C(F)(F)F)cc32)CC1 [trifluoperazine]	0.2028
OCCN1CCN(CCCN2c3ccccc3Sc3ccc(C(F)(F)F)cc32)CC1 [fluphenazine]	0.111
CC(C)NCC(O)COc1ccc(CC(N)=O)cc1 (centres unmarked) [atenolol]	0.00183

Now take the following compound into account.
Input: k′ ± SD (CEC) for Cc1ccc(/C(=C\CN2CCCC2)c2ccccn2)cc1 [triprolidine] ?
Output: 0.01006

----------
experiment: Sirius T3 automated potentiometric titrations with n-octanol, log P / log D; settings: n-octanol/water, pH 6.5
ASSAY_METRIC: logD
Give the figure only, with no unit attached.

Input: Look at this compound and give its reported logD. "CN(C)CCCN1c2ccccc2Sc2ccccc21"
Output: 1.71

----------
experiment: Sirius T3 automated potentiometric titrations with n-octanol, log P / log D; conditions: n-octanol/water, pH 1
ASSAY_METRIC: logD
Note: the reply should be a number with no unit written.

Input: Looking for the measured logD of "CN(C)CCCN1c2ccccc2Sc2ccccc21" , can you help?
Output: 0.83

----------
assay: Sirius T3 automated potentiometric titrations with n-octanol, log P / log D; conditions: n-octanol/water
Reported logP values for the following compounds.
Keep it simple and answer with nothing but the number.

Input: # input compound: "C[C@H]1COc2c(N3CCN(C)CC3)c(F)cc3c(=O)c(C(=O)O)cn1c23" ; wanted: its logP
Output: 0.82

Input: Please do the same for "O=C(O)c1ccccc1O" as well.
Output: 2.31

Input: Same question for "CN(C)CCCN1c2ccccc2Sc2ccccc21" please.
Output: 4.54

Input: Same thing, different compound: "OCCN1CCN(CCCN2c3ccccc3Sc3ccc(C(F)(F)F)cc32)CC1"
Output: 5.12

Input: Do the same for "CC(=O)Oc1ccccc1C(=O)O" please
Output: 1.31

Input: Query "CNC(=C[N+](=O)[O-])NCCSCc1ccc(CN(C)C)o1" next
Output: 0.34

----------
experiment: open-tubular capillary electrochromatography (CEC), permeability k′ parameter; format: in vitro ADME; conditions: pH 7.4 HEPES buffer 40 mM, migration times in coated and uncoated capillary, mean ± SD of three independent experiments
// classify: if (k′ ± SD (CEC) < 0.01) true (1) else false (0)

MOLECULE	CAT
O=C(O)CCCc1ccc(N(CCCl)CCCl)cc1 [chlorambucil]	true (1)
CN(C)CCc1c[nH]c2ccc(C[C@H]3COC(=O)N3)cc12 [zolmitriptan]	true (1)
Fc1ccc([C@@H]2CCNC[C@H]2COc2ccc3c(c2)OCO3)cc1 [paroxetine]	false (0)

Input: Consider O=C(O)Cc1ccccc1Nc1c(Cl)cccc1Cl [diclofenac] . Does its k′ ± SD (CEC) lie strictly below 0.01?
Output: true (1)

----------
experiment: Sirius T3 automated potentiometric titrations with n-octanol, log P / log D; conditions: n-octanol/water, pH 8
ASSAY_METRIC: logD
Number only, please.

Input: Can you share its logD? I mean this compound: "CN(C)CCCN1c2ccccc2Sc2ccccc21"
Output: 3.14

----------
assay: Sirius T3 automated potentiometric titrations with n-octanol, log P / log D; details: n-octanol/water, pH 6
ASSAY_METRIC: logD
Reply with the value as a number alone.

Input: Item under review: "CN(C)CCCN1c2ccccc2Sc2ccccc21" . Reported logD?
Output: 1.32

----------
assay: Sirius T3 automated potentiometric (pH-metric) titrations, pKa
ASSAY_METRIC: pKa
Lab note: write the figure by itself, no unit.

Input: # query: pKa of entry O=C(O)CCCc1ccc(N(CCCl)CCCl)cc1 [chlorambucil]
Output: 4.72

----------
experiment: Sirius T3 automated potentiometric (pH-metric) titrations, pKa; details: ionic strength adjusted (ISA) water ([…] KCl), pKa ± SD, […] ISA water or Yasuda–Shedlovsky extrapolation from methanol cosolvent; value used for regression
Lab note: anything with pKa at or over 9 counts as 1.0; the rest go in 0.0.

Input: Does the compound O=C(CCCN1CCC(O)(c2ccc(Cl)cc2)CC1)c1ccc(F)cc1 [haloperidol] have recorded pKa that is 9 or more?
Output: 0.0

Input: Can you check Fc1ccc([C@@H]2CCNC[C@H]2COc2ccc3c(c2)OCO3)cc1 [paroxetine] next?
Output: 1.0

Input: Do the same for OCCN1CCN(CCCN2c3ccccc3Sc3ccc(C(F)(F)F)cc32)CC1 [fluphenazine] please
Output: 0.0

----------
test: Sirius T3 automated potentiometric titrations with n-octanol, log P / log D; conditions: n-octanol/water
Reported logP is given for each of the following compounds.

Input: // returns reported logP for input "Cc1ccc(/C(=C\CN2CCCC2)c2ccccn2)cc1"
Output: 3.87

----------
assay: physchem; details: pH 7.4
ASSAY_METRIC: logD
# answer = number (no unit)

COMPOUND	logD
COc1ccc2c3c1O[C@H]1[C@@H](O)C=C[C@H]4[C@@H](C2)N(C)CC[C@@]341	0.26
CN(C)C(=O)C(CCN1CCC(O)(c2ccc(Cl)cc2)CC1)(c1ccccc1)c1ccccc1 [loperamide]	3.21
O=C(O)CCCc1ccc(N(CCCl)CCCl)cc1	1.07
CCC1(C2=CCCCC2)C(=O)NC(=O)NC1=O	1.16

Input: Query: logD; subject: S=C(NC1CCCCC1)N1CCC(c2cnc[nH]2)CC1 [thioperamide]
Output: 2.27

Input: Now try "COc1ccc2c3c1O[C@H]1C[C@@H](O)C=C[C@@]31CCN(C)C2" .
Output: 0.18

Input: Next up: "CCN(C)C(=O)Oc1cccc([C@H](C)N(C)C)c1"
Output: 0.66

Input: Another compound: "CCC1(c2ccccc2)C(=O)NC(=O)NC1=O"
Output: 0.98

----------
assay: Sirius T3 automated potentiometric titrations with n-octanol, log P / log D; conditions: n-octanol/water, pH 7.4
Each entry below carries its recorded logD.
Answer with a bare number; do not write a unit.

The following molecules have reported results that may help.
MOLECULE	logD
COc1ccc(CN(CCN(C)C)c2ccccn2)cc1 [mepyramine]	1.48
O=C(O)Cc1ccccc1Nc1c(Cl)cccc1Cl [diclofenac]	1.26
COc1ccc2c(c1)c(CC(=O)O)c(C)n2C(=O)c1ccc(Cl)cc1 [indomethacin]	3.92
O=c1n(CCCN2CCN(c3cccc(Cl)c3)CC2)nc2ccccn12 [trazodone]	2.88
CSc1ccc2c(c1)N(CCC1CCCCN1C)c1ccccc1S2 (stereo not drawn) [thioridazine]	3.54

Input: Could you share which logD value was measured for Cc1cn([C@H]2C[C@H](N=[N+]=[N-])[C@@H](CO)O2)c(=O)[nH]c1=O [zidovudine] ?
Output: 0.09

----------
assay: Sirius T3 automated potentiometric titrations with n-octanol, log P / log D; details: n-octanol/water
Listed here: items and their measured logP.
Number, no unit, nothing else.

# count of solved cases: 3
COMPOUND	logP
Cc1nc2n(c(=O)c1CCN1CCC(c3noc4cc(F)ccc34)CC1)CCCC2	3.09
CC(C)(C)NCC(O)c1ccc(O)c(CO)c1 (stereo not shown)	0.3
COc1ccc2c(c1)c(CC(=O)O)c(C)n2C(=O)c1ccc(Cl)cc1	6.31

Input: logP for CC(C)Cc1ccc(C(C)C(=O)O)cc1 (stereo not shown) ?
Output: 3.8

----------
assay: open-tubular capillary electrochromatography (CEC), permeability k′ parameter; format: in vitro ADME; conditions: pH 7.4 HEPES buffer 40 mM, migration times in coated and uncoated capillary, mean ± SD of three independent experiments
Short version: k′ ± SD (CEC) at least 0.01 is T, less is F.

SMILES_TEXT	CAT
CCCCC1C(=O)N(c2ccccc2)N(c2ccccc2)C1=O	F
COc1ccc2cc([C@H](C)C(=O)O)ccc2c1	T
CNCCCN1c2ccccc2CCc2ccccc21	F
CNC(=C[N+](=O)[O-])NCCSCc1ccc(CN(C)C)o1	F
COc1ccc2c(c1)c(CC(=O)O)c(C)n2C(=O)c1ccc(Cl)cc1	T

Input: # bool: k′ ± SD (CEC) of "CNC(=O)Oc1ccc2c(c1)[C@]1(C)CCN(C)[C@@H]1N2C" >= 0.01
Output: T

----------
assay: Sirius T3 automated potentiometric (pH-metric) titrations, pKa; details: ionic strength adjusted (ISA) water ([…] KCl), pKa ± SD, […] ISA water or Yasuda–Shedlovsky extrapolation from methanol cosolvent; value used for regression
Reported values of pKa for individual entries

Known results for compounds:
COMPOUND	ASSAY_METRIC	EXPERIMENTAL_RESULT
CNC(=C[N+](=O)[O-])NCCSCc1ccc(CN(C)C)o1	pKa	8.43
CN(C)CCc1c[nH]c2ccc(C[C@H]3COC(=O)N3)cc12	pKa	9.6
CN1CCN2c3ccccc3Cc3ccccc3C2C1 (stereo not shown)	pKa	7.25
COc1ccc(CN(CCN(C)C)c2ccccn2)cc1	pKa	8.71
CNCCC=C1c2ccccc2CCc2ccccc21	pKa	10.1
O=c1n(CCCN2CCN(c3cccc(Cl)c3)CC2)nc2ccccn12	pKa	6.83

Input: Look up pKa for this compound: "CN(C)CCCN1c2ccccc2Sc2ccccc21"
Output: 9.39

Input: Repeat with O=C(c1ccccc1)c1ccc2n1CCC2C(=O)O (stereo not shown)
Output: 3.64

Input: And the next one, CC(C)(C)NCC(O)c1ccc(O)c(CO)c1 (stereo not shown) ?
Output: 9.6

Input: Entry to check: "Cc1ccc(/C(=C\CN2CCCC2)c2ccccn2)cc1"
Output: 9.39

Input: What would you report for OCCOCCN1CCN(C(c2ccccc2)c2ccc(Cl)cc2)CC1 (stereo not shown) [hydroxyzine] ?
Output: 7.66
